- Tested on: CRL-7250
- Protocol notes: Cytotoxic Profiling of Annotated Libraries Using Quantitative High-Throughput Screening (AID 1296008); further: on the % scale 0 is the no-effect control and ±100 the full control effect; nearly all actives have a fitted effect of over 60% in size
- Settings: Five cell lines viability, CellTiter-Glo ATP luminescence, 48-72 h; hits give low values
Inconclusive results are not listed.
So I've got a bunch of compounds here, and I need their max response values.
Give bare numbers, in %.

Answered examples (4):
[Q] What does the data say about its max response? Entry: C[C@H]1[C@H](C)CC[C@]2(C(=O)O)CC[C@]3(C(=O)O)C(=CCC4[C@@]5(C)CC[C@H](O[C@@H]6O[C@H](C)[C@@H](O)[C@H](O)[C@H]6O)C(C)(C)C5CC[C@]43C)[C@H]12 (some centres not stated)
[A] -5.62

[Q] Also check CCC(C)(O)C(O)C(=O)OCc1ccc(O[C@@H]2O[C@H](CO)[C@@H](O)[C@H](O)[C@H]2O)c(OC)c1 (some centres not stated)
[A] 0.769

[Q] Same lookup for COc1cc2c(cc1O)C1(OC)Cc3ccc4c(c3C1N(C)CC2)OCO4 (configuration not stated) , please.
[A] -5.51

[Q] Another: CC1(C)CC2C(O)C3=C(CC(C)(O)C2C1)C(=O)OC3O (configuration not stated)
[A] -0.0685

I need max response for every entry listed below, if you could help.
1. CCC/C=C/C(=O)O[C@H]1CC(C)(C)CC2[C@]13[C@H](O)O[C@@]21CCC2[C@@]4(C)CC[C@H](O[C@@H]5O[C@H](C(=O)O)[C@@H](O)[C@H](O[C@@H]6O[C@H](CO)[C@H](O)[C@H](O)[C@H]6O[C@@H]6O[C@@H](C)[C@H](O)[C@@H](O)[C@H]6O[C@@H]6OC[C@](O)(CO)[C@H]6O)[C@H]5O[C@@H]5O[C@H](CO)[C@H](O)[C@H](O)[C@H]5O)C(C)(C)C4CC[C@@]2(C)[C@]1(C)C[C@H]3OC(C)=O (some centres not stated)
2. CC(=O)OC1C(O)CC(O[C@@H]2O[C@H](CO)[C@@H](O)[C@H](O)[C@H]2O)C2CCC3C(=O)OC(c4ccoc4)CC3(C)C21 (some centres not stated)
3. C[C@@H]1CC[C@]2(C)C3(C)CC[C@@]2(OC3=O)[C@@]12C[C@H](c1ccoc1)OC2=O

[A]
-6.81
-4.25
-6.81
